readout name: melting point

What does the record list as melting point for "COc1c(C)cc(C(=O)N2CCN(c3ncccc3NC(C)C)CC2)cc1C" ?
89 to 93 °C

Next:
What does the record list as melting point for "Cc1ccc2c(c1)N=C(N1CCN(C)CC1)c1cscc1O2" ?
222 °C

What does the record list as melting point for "Cc1ccc(-c2ccc(C(=O)Nc3ccc4cc(CN5CCCC5)cnc4c3)cn2)cc1" ?
226 to 228 °C

What does the record list as melting point for "Nc1ccc(OCc2nc3cc(F)ccc3s2)cc1" ?
125 to 128 °C

----------
// reported melting point for each item listed

What does the record list as melting point for Cn1nc(-c2c(Cl)cncc2Cl)nc1C1(C)CC1(Cl)Cl (centres undefined) ?
79 to 83 °C

What does the record list as melting point for "COc1ccc(C(=O)c2ccccc2)cc1OCCCN1CCC(c2noc3cc(F)ccc23)CC1" ?
140 to 141 °C

What does the record list as melting point for CCOC(=O)CC[C@H](NC1CCC(CCC2CNc3nc(NC(=O)C(C)(C)C)nc(O)c3C2)CC1)C(=O)OCC (some centres undefined) ?
160 to 170 °C

What does the record list as melting point for "O=c1ccc2c(O)cccc2o1" ?
224 to 225 °C

Next:
What does the record list as melting point for "CCOC(=O)COc1cc(C)nc2c(OCc3c(Cl)ccc(N(C)C(=O)CNC(=O)C=Cc4ccc(C(=O)NC)cc4)c3Cl)cccc12" ?
134 to 147 °C

What does the record list as melting point for "Cn1nc2nc(C(C)(C)C)[nH]c(=O)c2c1N" ?
285 to 287 °C

What does the record list as melting point for "O=C(Nc1ccccc1SCc1ncon1)OCc1ccccc1" ?
41 °C

What does the record list as melting point for "CCS(=O)(=O)N(C(C)=O)c1cc(-n2nc(C(F)(F)F)n(C)c2=O)c(F)cc1C#N" ?
179 °C

What does the record list as melting point for "O=C(Nc1ccc2nc(CN3CCCCC3)ccc2c1)c1ccc(-c2ccccc2F)cc1" ?
163 to 164 °C

What does the record list as melting point for "O=c1nc(-c2ccc([N+](=O)[O-])cc2)oc2ccccc12" ?
249 to 251 °C

What does the record list as melting point for "O=[N+]([O-])c1ccc(OCc2ccccc2)c2cnsc12" ?
158 to 160 °C

What does the record list as melting point for "CC(C)(C)c1cc(CCc2nnc(N)o2)cc(C(C)(C)C)c1O" ?
220 to 221 °C

What does the record list as melting point for "Cc1oc(-c2ccccc2)nc1COc1ccc(CON=C(CCCCCCC(=O)O)c2ccc(Cl)cc2)cc1" ?
54 to 57 °C

What does the record list as melting point for "O=C(CCCNc1c(C(=O)O)[nH]c2cc(Cl)cc(Cl)c12)c1ccccc1" ?
254 to 256 °C

What does the record list as melting point for "CC(C)c1ccc2nc(C(F)(F)F)c(C(=O)Nc3nccs3)c(O)c2c1" ?
262 °C

What does the record list as melting point for "COc1ccc(NC(=O)N2CCc3cc(F)c(Cl)cc32)cc1N1CCN(C)CC1" ?
177 to 180 °C

What does the record list as melting point for "COCCN(CCOC)c1ccc(Nc2ncc3c(C)c(Br)c(=O)n(C4CCCC4)c3n2)nc1" ?
94 to 95 °C

What does the record list as melting point for CCOC(=O)c1c(C)c(C(=O)C(C#N)C(=O)Nc2ccccc2)n(C)c1C (centres undefined) ?
164 to 166 °C

What does the record list as melting point for "N#CC(=NOS(=O)(=O)c1ccc(C(=O)O)cc1)c1ccccc1" ?
250 to 251 °C
